Reference for the values: paper PMC10569638

Target: zebrafish αβδε nAChR (ε-type) (Danio rerio, UniProt A2BG85+Q75XT1+Q98880)
Sequence (Q98880 21-456): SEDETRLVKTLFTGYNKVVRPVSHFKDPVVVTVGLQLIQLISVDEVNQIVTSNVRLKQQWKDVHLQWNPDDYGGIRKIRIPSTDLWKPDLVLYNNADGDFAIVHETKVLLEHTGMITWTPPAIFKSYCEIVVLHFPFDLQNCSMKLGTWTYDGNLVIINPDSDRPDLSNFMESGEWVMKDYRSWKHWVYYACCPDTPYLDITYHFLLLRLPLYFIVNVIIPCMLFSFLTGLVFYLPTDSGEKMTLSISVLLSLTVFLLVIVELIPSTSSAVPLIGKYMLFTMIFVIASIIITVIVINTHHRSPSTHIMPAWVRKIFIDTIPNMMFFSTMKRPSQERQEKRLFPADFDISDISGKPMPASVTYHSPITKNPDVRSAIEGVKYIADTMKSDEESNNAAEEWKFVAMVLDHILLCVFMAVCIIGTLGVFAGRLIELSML
Sequence (Q75XT1 22-518): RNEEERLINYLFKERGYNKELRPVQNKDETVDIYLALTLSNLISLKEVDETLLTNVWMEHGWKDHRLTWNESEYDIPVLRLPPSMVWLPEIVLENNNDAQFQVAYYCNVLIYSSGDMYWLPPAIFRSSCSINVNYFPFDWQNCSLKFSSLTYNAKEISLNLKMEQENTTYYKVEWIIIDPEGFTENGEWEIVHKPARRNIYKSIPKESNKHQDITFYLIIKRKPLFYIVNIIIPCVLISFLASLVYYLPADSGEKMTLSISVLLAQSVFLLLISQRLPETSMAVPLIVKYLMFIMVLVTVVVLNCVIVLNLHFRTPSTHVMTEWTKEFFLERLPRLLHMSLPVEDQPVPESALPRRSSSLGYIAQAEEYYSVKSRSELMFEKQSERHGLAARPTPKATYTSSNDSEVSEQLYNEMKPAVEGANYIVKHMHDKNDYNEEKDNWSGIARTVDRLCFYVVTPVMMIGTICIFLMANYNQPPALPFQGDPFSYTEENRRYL
Sequence (A2BG85 27-517): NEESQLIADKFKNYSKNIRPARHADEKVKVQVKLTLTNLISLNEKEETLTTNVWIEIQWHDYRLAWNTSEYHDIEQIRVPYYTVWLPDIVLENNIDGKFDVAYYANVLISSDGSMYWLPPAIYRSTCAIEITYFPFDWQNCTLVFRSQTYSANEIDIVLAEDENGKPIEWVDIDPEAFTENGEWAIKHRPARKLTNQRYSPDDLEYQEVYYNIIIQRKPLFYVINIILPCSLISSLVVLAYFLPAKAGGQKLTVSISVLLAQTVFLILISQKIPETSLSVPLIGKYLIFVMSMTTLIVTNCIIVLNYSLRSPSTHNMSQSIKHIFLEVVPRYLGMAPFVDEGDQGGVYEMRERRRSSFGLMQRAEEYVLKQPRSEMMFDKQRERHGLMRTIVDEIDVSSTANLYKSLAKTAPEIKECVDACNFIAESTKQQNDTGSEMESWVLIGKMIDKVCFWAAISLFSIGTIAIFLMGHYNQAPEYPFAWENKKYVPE
Sequence (G1FMP8 23-492 partner): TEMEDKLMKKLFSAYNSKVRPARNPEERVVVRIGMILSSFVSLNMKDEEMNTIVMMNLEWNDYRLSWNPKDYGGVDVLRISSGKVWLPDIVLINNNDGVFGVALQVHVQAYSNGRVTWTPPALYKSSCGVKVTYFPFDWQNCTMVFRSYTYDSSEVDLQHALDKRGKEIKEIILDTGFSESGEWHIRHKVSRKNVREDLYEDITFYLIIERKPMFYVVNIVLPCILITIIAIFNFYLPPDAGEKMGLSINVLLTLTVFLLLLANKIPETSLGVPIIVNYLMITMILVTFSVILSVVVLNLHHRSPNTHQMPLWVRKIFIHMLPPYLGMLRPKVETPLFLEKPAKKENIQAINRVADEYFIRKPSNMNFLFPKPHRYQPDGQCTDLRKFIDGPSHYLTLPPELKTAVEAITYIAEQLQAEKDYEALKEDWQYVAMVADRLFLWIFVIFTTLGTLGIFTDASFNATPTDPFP
Assay: TEVC inhibition of ACh-elicited nAChR current in Xenopus oocytes, ε-type
Type: cell-based
Details: IC50, ε-type, current elicited by 100 μM ACh, -80 mV, mean ± sem
Consider the following compounds and their measured IC50 readings.
Write the value in nM as a bare number.

- smiles.code: "CC(=O)O[C@H]1C[C@@H]2CC[C@@H]3[C@H](CC[C@@]4(C)[C@H]3C[C@H]([N+]3(C)CCCCC3)[C@@H]4OC(C)=O)[C@@]2(C)C[C@@H]1N1CCCCC1"
  IC50 (nM): 1.1

Input: Tell me the measured IC50 of `C=CC[N+]1([C@H]2C[C@H]3[C@@H]4CC[C@H]5C[C@H](O)[C@@H](N6CCOCC6)C[C@]5(C)[C@H]4CC[C@]3(C)[C@H]2OC(C)=O)CCCC1` , please.
Output: 4.7

Input: Can you look up the measured IC50 of `CC(=O)O[C@H]1C[C@@H]2CC[C@@H]3[C@H](CC[C@@]4(C)[C@H]3C[C@H]([N+]3(C)CCCCC3)[C@@H]4OC(C)=O)[C@@]2(C)C[C@@H]1[N+]1(C)CCCCC1` for me?
Output: 15.6
